tested-target: PI3K γ (Homo sapiens (Human))
Sequence (P48736 whole entry): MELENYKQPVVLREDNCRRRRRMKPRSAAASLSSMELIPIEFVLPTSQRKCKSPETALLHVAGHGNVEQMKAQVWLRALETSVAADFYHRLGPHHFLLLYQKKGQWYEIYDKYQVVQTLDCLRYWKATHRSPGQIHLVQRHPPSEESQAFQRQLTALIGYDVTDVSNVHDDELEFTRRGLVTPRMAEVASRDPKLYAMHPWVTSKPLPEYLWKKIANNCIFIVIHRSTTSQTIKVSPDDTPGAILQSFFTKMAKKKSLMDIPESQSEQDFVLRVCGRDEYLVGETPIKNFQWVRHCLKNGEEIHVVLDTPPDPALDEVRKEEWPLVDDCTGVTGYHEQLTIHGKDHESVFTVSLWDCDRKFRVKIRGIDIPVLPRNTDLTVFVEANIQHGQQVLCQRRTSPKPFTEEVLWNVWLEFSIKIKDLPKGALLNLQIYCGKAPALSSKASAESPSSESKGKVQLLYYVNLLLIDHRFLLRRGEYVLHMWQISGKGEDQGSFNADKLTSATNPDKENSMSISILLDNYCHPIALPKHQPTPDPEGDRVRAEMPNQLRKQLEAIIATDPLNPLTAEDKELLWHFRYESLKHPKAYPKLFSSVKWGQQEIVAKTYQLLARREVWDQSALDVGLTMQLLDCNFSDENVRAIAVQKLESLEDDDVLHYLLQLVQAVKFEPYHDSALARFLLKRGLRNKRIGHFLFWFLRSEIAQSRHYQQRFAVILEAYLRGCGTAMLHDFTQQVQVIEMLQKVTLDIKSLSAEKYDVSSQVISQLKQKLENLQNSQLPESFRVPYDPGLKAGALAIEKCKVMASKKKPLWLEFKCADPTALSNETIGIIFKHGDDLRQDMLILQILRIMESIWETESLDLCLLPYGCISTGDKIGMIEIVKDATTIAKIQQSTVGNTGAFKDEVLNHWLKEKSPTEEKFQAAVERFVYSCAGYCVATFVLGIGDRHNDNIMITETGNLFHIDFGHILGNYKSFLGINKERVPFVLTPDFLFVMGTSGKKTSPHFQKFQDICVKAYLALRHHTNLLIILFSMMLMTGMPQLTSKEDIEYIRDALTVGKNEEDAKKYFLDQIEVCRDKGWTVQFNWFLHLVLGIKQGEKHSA
assay-info: PI3-Kinase Promega ADP-Glo Max assay
Type: biochemical
property-label: PI3K δ/PI3K γ IC50 (selectivity)

[[record]]
compound = "COC(C)C#Cc1cccc2cc([C@H](C)NC(=O)c3c(N)nn4cccnc34)n(-c3ccccc3)c(=O)c12 (some centres unmarked)"
tested_target = "PI3K γ (Homo sapiens (Human))"
result = "X (X = 10 to <50)"

[[record]]
compound = "Cc1nnc(C#Cc2cccc3cc([C@H](C)NC(=O)c4c(N)nn5cccnc45)n(-c4ccccc4)c(=O)c23)s1"
tested_target = "PI3K γ (Homo sapiens (Human))"
result = "X (X = 10 to <50)"

[[record]]
compound = "COc1cc(C#Cc2cccc3cc([C@H](C)NC(=O)c4c(N)nn5cccnc45)n(-c4ccccc4)c(=O)c23)ccn1"
tested_target = "PI3K γ (Homo sapiens (Human))"
result = "W (W = >1 to <10)"

[[record]]
compound = "C#Cc1cccc2nc([C@H](C)NC(=O)c3c(N)nn4cccnc34)n(-c3ccc(F)c(F)c3)c(=O)c12"
tested_target = "PI3K γ (Homo sapiens (Human))"
result = "Y (Y = 50 to <850)"

[[record]]
compound = "C[C@H](NC(=O)c1c(N)nn2cccnc12)c1cc2cccc(C#CC3CCOCC3)c2c(=O)n1-c1ccccc1"
tested_target = "PI3K γ (Homo sapiens (Human))"
result = "X (X = 10 to <50)"

[[record]]
compound = "C[C@H](NC(=O)c1c(N)nn2cccnc12)c1cc2cccc(C#Cc3cnc[nH]3)c2c(=O)n1-c1ccccc1"
tested_target = "PI3K γ (Homo sapiens (Human))"
result = "Y (Y = 50 to <850)"

[[record]]
compound = "C[C@H](NC(=O)c1c(N)nn2cccnc12)c1cc2cccc(C#Cc3ccc(=O)n(C)c3)c2c(=O)n1-c1ccccc1"
tested_target = "PI3K γ (Homo sapiens (Human))"
result = "X (X = 10 to <50)"

[[record]]
compound = "C[C@H](NC(=O)c1c(N)nn2cccnc12)c1cc2cccc(C#Cc3ccncc3)c2c(=O)n1-c1ccccc1"
tested_target = "PI3K γ (Homo sapiens (Human))"
result = "X (X = 10 to <50)"

[[record]]
compound = "C[C@H](NC(=O)c1c(N)nn2cccnc12)c1cc2cccc(C#CC(F)(F)F)c2c(=O)n1-c1ccccc1"
tested_target = "PI3K γ (Homo sapiens (Human))"
result = "W (W = >1 to <10)"

[[record]]
compound = "C[C@H](NC(=O)c1c(N)nn2cccnc12)c1cc2cccc(C#Cc3nccs3)c2c(=O)n1-c1ccccc1"
tested_target = "PI3K γ (Homo sapiens (Human))"
result = "X (X = 10 to <50)"

[[record]]
compound = "Cc1c(C#Cc2cccc3cc([C@H](C)NC(=O)c4c(N)nn5cccnc45)n(-c4ccccc4)c(=O)c23)cnn1C"
tested_target = "PI3K γ (Homo sapiens (Human))"
result = "Y (Y = 50 to <850)"

[[record]]
compound = "CC(C)n1c([C@H](C)NC(=O)c2c(N)nn3cccnc23)cc2cccc(C#Cc3cnn(C)c3)c2c1=O"
tested_target = "PI3K γ (Homo sapiens (Human))"
result = "X (X = 10 to <50)"

[[record]]
compound = "C[C@H](NC(=O)c1c(N)nn2cccnc12)c1cc2cccc(C#Cc3cnn(C)c3)c2c(=O)n1C"
tested_target = "PI3K γ (Homo sapiens (Human))"
result = "X (X = 10 to <50)"

